- test.details: in vivo
- condition: CF-1, mouse, iv
observable: concentration at 5 min (nM)
Hi! Could you send only the number? It should be in nM, unit omitted.

In: Given the entry CC(C)(C)NC(=O)[C@@H]1CN(Cc2cccnc2)CCN1C[C@@H](O)C[C@@H](Cc1ccccc1)C(=O)N[C@H]1c2ccccc2C[C@H]1O [Indinavir] , report its measured concentration at 5 min.
Out: 165

====

- test.details: Oral bioavailability in the male Sprague-Dawley rat (IV and PO)
- Format: in vivo
- condition: plasma, 10 mg/kg
# bioavailability values compiled below
Hi! Could you send only the number? It should be in %, unit omitted.

Guide cases for bioavailability, answers given:
{"compound": "CCc1cc(CC(C)(C)C)cc2c1CCCC2NCC(O)C(Cc1cc(F)cc(F)c1)NC(C)=O (single isomer, unassigned) [91.8 Diastereomer A]", "observable": "bioavailability", "number": 23.3}
{"compound": "CC(=O)NC(Cc1cc(F)cc(F)c1)C(O)CNC1CCCc2ccc(CC(C)(C)C)cc21 (stereo not shown)", "observable": "bioavailability", "number": 15}
{"compound": "CCc1ccc2c(c1)C(NCC(O)C(Cc1cc(F)cc(F)c1)NC(C)=O)CCC2 (stereo not shown)", "observable": "bioavailability", "number": 14.3}

Alright, here's another compound for you.
In: Given the entry CC(=O)NC(Cc1cc(F)cc(F)c1)C(O)CNC1CCNc2ccc(CC(C)(C)C)cc21 (single isomer, unassigned) [91.10 Diastereomer B] , report its measured bioavailability.
Out: 5

====

- test.details: in vivo
- condition: CF-1, mouse, iv
observable: concentration at 60 min (nM)
Hi! Could you send only the number? It should be in nM, unit omitted.

In: Given the entry "CC(C)(C)NC(=O)[C@@H]1CN(Cc2cccnc2)CCN1C[C@@H](O)C[C@@H](Cc1ccccc1)C(=O)N[C@H]1c2ccccc2C[C@H]1O" , report its measured concentration at 60 min.
Out: 11

====

# Efficacy (% Inhibition, 100 mg/kg) plasma values compiled below
- Test system: A-beta
- test.details: Efficacy of compounds to inhibit A-beta concentration (% inhibition vs vehicle control)
- Format: in vivo, rat
- condition: 100 mg/kg; plasma; inhibition of total A-beta vs vehicle control
Hi! Could you send only the number? It should be in %, unit omitted.

Guide cases for Efficacy (% Inhibition, 100 mg/kg) plasma, answers given:
{"compound": "CC(C)(C)Cc1ccc2c(c1)C(NCC(O)C(Cc1cc(F)cc(F)c1)NC(=O)CF)CCC2 (stereo not shown) [Example 91.3]", "number": 23}
{"compound": "CCc1ccc2c(c1)C(NCC(O)C(Cc1cc(F)cc(F)c1)NC(C)=O)CCC2 (single isomer, unassigned) [91.5 Diastereomer A]", "number": 44}
{"compound": "CC(=O)NC(Cc1cc(F)cc(F)c1)C(O)CNC1CCNc2ccc(CC(C)(C)C)cc21 (single isomer, unassigned) [91.4 Diastereomer B]", "number": 59}

Alright, here's another compound for you.
In: Given the entry CCc1cc(CC(C)(C)C)cc2c1CCCC2NCC(O)C(Cc1cc(F)cc(F)c1)NC(C)=O (single isomer, unassigned) [91.2 Diastereomer A] , report its measured Efficacy (% Inhibition, 100 mg/kg) plasma.
Out: 57

====

- assayed.system: BACE (Homo sapiens)
- Sequence (P56817 46-501): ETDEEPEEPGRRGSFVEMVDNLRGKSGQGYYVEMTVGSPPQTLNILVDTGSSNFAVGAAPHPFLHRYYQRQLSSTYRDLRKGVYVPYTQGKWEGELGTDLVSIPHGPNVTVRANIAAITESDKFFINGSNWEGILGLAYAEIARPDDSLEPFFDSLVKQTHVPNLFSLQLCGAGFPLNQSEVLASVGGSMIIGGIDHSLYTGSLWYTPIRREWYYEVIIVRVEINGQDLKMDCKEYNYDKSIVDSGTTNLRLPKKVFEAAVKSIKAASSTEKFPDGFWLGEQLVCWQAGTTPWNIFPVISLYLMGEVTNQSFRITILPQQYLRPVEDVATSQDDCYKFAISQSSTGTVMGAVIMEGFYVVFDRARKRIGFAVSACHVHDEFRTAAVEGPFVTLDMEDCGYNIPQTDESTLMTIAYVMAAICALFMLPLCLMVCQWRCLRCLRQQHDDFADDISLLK
- test.details: BACE EC50 (enzyme inhibition, Table on oral bioavailability)
observable: EC50 (nM)
Hi! Could you send only the number? It should be in nM, unit omitted.

{"compound": "CC(=O)NC(Cc1cc(F)cc(F)c1)C(O)CNC1CCCc2ccc(CC(C)(C)C)cc21 (stereo not shown) [Example 91.1]", "unit.label": "nM", "number": 9}
{"compound": "CCc1cc(CC(C)(C)C)cc2c1CCCC2NCC(O)C(Cc1cc(F)cc(F)c1)NC(C)=O (single isomer, unassigned) [91.8 Diastereomer A]", "unit.label": "nM", "number": 12}
{"compound": "CC(=O)NC(Cc1cc(F)cc(F)c1)C(O)CNC1CCNc2ccc(CC(C)(C)C)cc21 (single isomer, unassigned) [91.10 Diastereomer B]", "unit.label": "nM", "number": 190}

In: Given the entry CCc1ccc2c(c1)C(NCC(O)C(Cc1cc(F)cc(F)c1)NC(C)=O)CCC2 (stereo not shown) [Example 91.11] , report its measured EC50.
Out: 210
